- experimental.target: ZFP SBS#361 (synthetic)
- Sequence (chain, as listed by the source): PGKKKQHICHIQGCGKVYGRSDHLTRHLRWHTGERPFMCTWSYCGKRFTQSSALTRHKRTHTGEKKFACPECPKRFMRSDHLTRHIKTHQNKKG
- assay.comment: EMSA
- measurement.conditions: tags: MBP fusion
measured.property: pKd
// returns pKd (minus log10 of molar concentration), number only

The recorded pKd for entry GGGTTTGGG (dsDNA) DNA 1: GGGTTTGGG DNA 2: CCCAAACCC equals 6.89
